Assay: recombinant barcode read abundance after kanamycin selection (control-corrected) (log10(CPM+1)); higher = more efficient recombination; sequences stand for … in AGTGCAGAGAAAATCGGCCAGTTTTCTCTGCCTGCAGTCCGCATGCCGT…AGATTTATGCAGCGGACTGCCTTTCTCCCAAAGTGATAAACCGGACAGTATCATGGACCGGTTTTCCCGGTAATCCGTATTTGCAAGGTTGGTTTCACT; site = the 11-nt target;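 further: IS621 recombinase and bridge RNA in Escherichia coli cells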
Exercise: state measured recombinant barcode read abundance (log10) for each of the sequences provided.
No unit in the answer, please; the number alone is enough.

Q) Need recombinant barcode read abundance (log10), item TGTATGTCTTGGGTTCTAACCTGTTGCCT (site TGTATGTCTAG)
A) 0.0364

Q) Tell me the measured recombinant barcode read abundance (log10) of TAGAGAGCTTGGGTTCTAACCTGTTGCGG (site TAAAGAGCTCC) , please.
A) 1.57

Q) // recombinant barcode read abundance (log10) lookup, key: AAACTTACTTGGGTTCTAACCTGTTGCCT (site AGATTTACTAG)
A) 0.0102

Q) Give the measured recombinant barcode read abundance (log10) of GCCCTTGCTTGGGTTCTAACCTGTTGCCT (site GCCCTTGCTAG) .
A) 1.79

Q) What value of measured recombinant barcode read abundance (log10) is listed for CTAATTGCTTGGGTTCTAACCTGTTGCCT (site CTAATTGCTAG) ?
A) 0.336

Q) Entry under review: GCTCACTCTTGGGTTCTAACCTGTTGCTT (site GCTCACTCTAA) . Reported recombinant barcode read abundance (log10)?
A) 1.63

Q) Any idea what recombinant barcode read abundance (log10) was measured for TGCTACCCTTGGGTTCTAACCTGTTGCCT (site TCCTACCCTAG) ?
A) 0.367

Q) Value lookup for recombinant barcode read abundance (log10); key = TAGTGTACTTGGGTTCTAACCTGTTGCCT (site TAGTGTTCTAG)
A) 0.376

Q) Any idea what recombinant barcode read abundance (log10) was measured for ACCGTCCCTTGGGTTCTAACCTGTTGCCG (site ACCGTCCCTCG) ?
A) 0.107

Q) For CGTCACACTTGGGTTCTAACCTGTTGCCT (site CGGCACACTAG) , what is its reported recombinant barcode read abundance (log10)?
A) 0.052

Q) Give the measured recombinant barcode read abundance (log10) of CTGCACTCTTGGGTTCTAACCTGTTGCCA (site CTGCACTCTTG) .
A) 0.842

Q) Consider the sequence shown here: AAGGGGTCTTGGGTTCTAACCTGTTGCTT (site AAGGGGTCTAA) What is its recorded recombinant barcode read abundance (log10)?
A) 3.02

Q) Return reported recombinant barcode read abundance (log10); argument: GCGTCTCCTTGGGTTCTAACCTGTTGCAT (site GCGGCTCCTAT)
A) 0.0731

Q) I'd like to know its recombinant barcode read abundance (log10). The sequence in question is GGATTCTCTTGGGTTCTAACCTGTTGCCT (site GGATTCTCTAG)
A) 1.83

Q) Returns the measured recombinant barcode read abundance (log10) for the input sequence. Input: TGACGTCCTTGGGTTCTAACCTGTTGCGT (site TGACGTCCTAA)
A) 0.0894

Q) Look up recombinant barcode read abundance (log10): CAAGTGACTTGGGTTCTAACCTGTTGCCT (site CAAGTGACTAG)
A) 1.68

Q) Need recombinant barcode read abundance (log10) of ATGGTGTCTTGGGTTCTAACCTGTTGCCT (site ATGGTGACTAG) , thanks.
A) 0.109

Q) Fill in the blank: the reported recombinant barcode read abundance (log10) of CTCTCGTCTTGGGTTCTAACCTGTTGCAT (site CTCTCGTCTAC) is ____.
A) 0.08

Q) So what's the measured recombinant barcode read abundance (log10) for this one? CCTGACTCTTGGGTTCTAACCTGTTGCCT (site CCTGATTCTAG)
A) 0.195

Q) Query: recombinant barcode read abundance (log10); subject: GTAATGACTTGGGTTCTAACCTGTTGCCT (site GCAATGACTAG)
A) 0.194

Q) Which measured recombinant barcode read abundance (log10) value corresponds to GGCACTTCTTGGGTTCTAACCTGTTGCCT (site GGCTCTTCTAG) ?
A) 0.136

Q) Which measured recombinant barcode read abundance (log10) value corresponds to CGGCCACCTTGGGTTCTAACCTGTTGCCT (site TGGCCACCTAG) ?
A) 0.0718

Q) Consider the sequence CGGATCGCTTGGGTTCTAACCTGTTGCCT (site CGGATCGCTAG) and give its measured recombinant barcode read abundance (log10).
A) 1.76

Q) Can you look up the measured recombinant barcode read abundance (log10) of GAGGGCCCTTGGGTTCTAACCTGTTGCAG (site GAGGGCCCTCG) for me?
A) 1.4

Q) Find the recorded recombinant barcode read abundance (log10) belonging to CATGATACTTGGGTTCTAACCTGTTGCCT (site ATCTTGTCTCC) and report it.
A) 0.0865

Q) Param item = CCTGGGACTTGGGTTCTAACCTGTTGCGA (site CCTGGGACTGC) ; retrieve measured recombinant barcode read abundance (log10).
A) 0.961

Q) Fill in the blank: the reported recombinant barcode read abundance (log10) of AGACTTCCTTGGGTTCTAACCTGTTGCTT (site AGACTTCCTAA) is ____.
A) 0.811

Q) Which recombinant barcode read abundance (log10) reading was recorded for the sequence GAACCTCCTTGGGTTCTAACCTGTTGCAT (site GAACCTCCTAT) ?
A) 1.94

Q) Look at this sequence and give its reported recombinant barcode read abundance (log10). CATCTACCTTGGGTTCTAACCTGTTGCGG (site CATCTACCTCC)
A) 1.39

Q) Find the recorded recombinant barcode read abundance (log10) belonging to TATGTGTCTTGGGTTCTAACCTGTTGCCT (site TATGTGTCTAG) and report it.
A) 2.01

Q) Query: recombinant barcode read abundance (log10); subject: GCTCAGCCTTGGGTTCTAACCTGTTGCCT (site GCTCAGACTAG)
A) 0.0954

Q) Any idea what recombinant barcode read abundance (log10) was measured for CTCGTTACTTGGGTTCTAACCTGTTGCCT (site CTCGTAACTAG) ?
A) 0.0393

Q) Query: recombinant barcode read abundance (log10); subject: GCTAGGACTTGGGTTCTAACCTGTTGCTG (site GCTAGGACTCA)
A) 2.12

Q) What does the data say about its recombinant barcode read abundance (log10)? Entry: CTTTAGACTTGGGTTCTAACCTGTTGCAT (site CTCTAGACTAC)
A) 0.0162

Q) Which recombinant barcode read abundance (log10) value is on record for AGCTTTGCTTGGGTTCTAACCTGTTGCCT (site AGCGTTGCTAG) ?
A) 0.669

Q) Query (sequence): GAGCGCTCTTGGGTTCTAACCTGTTGCTT (site GAGCGCTCTAA) ; field requested: recombinant barcode read abundance (log10)
A) 1.22

Q) Fill blank: measured recombinant barcode read abundance (log10) of the sequence AAGTCGACTTGGGTTCTAACCTGTTGCCT (site AAGTCGACTAG) is ____.
A) 0.76

Q) Entry under review: TGGCAGTCTTGGGTTCTAACCTGTTGCCT (site TGGCAGACTAG) . Reported recombinant barcode read abundance (log10)?
A) 0.207

Q) Find the recorded recombinant barcode read abundance (log10) belonging to ATTTGAGCTTGGGTTCTAACCTGTTGCTG (site ATTTGAGCTCA) and report it.
A) 0.732

Q) # get_value(readout='recombinant barcode read abundance (log10)', item= GGGCCTACTTGGGTTCTAACCTGTTGCTA (site GGGCCTACTGA) )
A) 0.482

Q) So what's the measured recombinant barcode read abundance (log10) for this one? AATAAGACTTGGGTTCTAACCTGTTGCCA (site AATAGGACTTA)
A) 0.134

Q) Give its recombinant barcode read abundance (log10) value. Item: TAGAATGCTTGGGTTCTAACCTGTTGCTT (site TAGAATGCTAG)
A) 0.148
